Assign Growth Rate to each entry below.
# System: Fibroblast
# TEST_METHOD_NOTES: Incucyte cell viability with human fibroblast; further: filed as whole numbers so only -1 and 0 and 1 occur
# Assay type: toxicity, cell-based
# CONDITIONS_USED: 18 h, 10 µM, compound concentration 10 uM, replicate number 2, timepoint 18 hours

A selection of reference data follows.
compound="COc1ccc2cc(OCC3(C(=O)O)CN(C(=O)c4ccc(F)cc4)C3)ccc2c1 [PF-04418948]" assay_system=Fibroblast value_reported=1
compound="CN1CCCC(n2nc(Cc3ccc(Cl)cc3)c3ccccc3c2=O)CC1.Cl (stereo not drawn) [AZELASTINE HYDROCHLORIDE]" assay_system=Fibroblast value_reported=0
compound="NC(=O)Nc1cc(-c2cccc(F)c2)sc1C(=O)N[C@H]1CCCNC1 [AZD-7762]" assay_system=Fibroblast value_reported=1
compound="CNCCC(Oc1ccc(C(F)(F)F)cc1)c1ccccc1.Cl (stereo not drawn) [FLUOXETINE HYDROCHLORIDE]" assay_system=Fibroblast value_reported=0
compound=CCC(=O)N1CCOc2c(cc(-c3ccc(OC)c(OC)c3)cc2OC[C@H]2CCCN(C)C2)C1 assay_system=Fibroblast value_reported=0

Batch lookup, Growth Rate per entry.
1. O=C(NCc1ccccc1)c1ccc(S(=O)(=O)NCc2ccccc2)cc1
2. CN(C)[C@@H]1CCN(c2cc(-c3ccccc3)nc3ccnn23)C1 [(R)-ZINC-3573]
3. C=C1/C(=C\C=C2/CCC[C@]3(C)[C@@H]([C@H](C)/C=C/C=C/C(O)(CC)CC)CC[C@@H]23)C[C@@H](O)C[C@@H]1O [SEOCALCITOL]

1: 0; 2: 0; 3: 1

###

# Tested on: HEK-293T
# TEST_METHOD_NOTES: Multiplex assay against HEK293T
# Assay type: toxicity, cell-based
# CONDITIONS_USED: human, 48 h, 10 µM, compound concentration 10 uM, replicate 2
REPORTED_PROPERTY: Population Normal (%)
Answers are plain numbers, in %.

A selection of reference data follows.
molecule=Cc1c(-c2ccc(O)cc2)n(Cc2ccc(OCCN3CCCCCC3)cc2)c2ccc(O)cc12 assay_system=HEK-293T value_reported=90
molecule="C[C@@H](NCCCc1cccc(C(F)(F)F)c1)c1cccc2ccccc12.Cl [CINACALCET HYDROCHLORIDE]" assay_system=HEK-293T value_reported=90
molecule=COc1cc(-n2cnc3cc(-c4ccc(Cl)cc4)sc3c2=O)ccc1OCCN1CCCC1 assay_system=HEK-293T value_reported=89
molecule=NC(=O)Nc1cc(-c2cccc(F)c2)sc1C(=O)N[C@H]1CCCNC1 assay_system=HEK-293T value_reported=91
molecule=C[C@@]1(C(=O)Nc2ccc(F)nc2)CCCN1c1nc(Nc2cc(C3CC3)n[nH]2)c2cccn2n1 assay_system=HEK-293T value_reported=92

Batch lookup, Population Normal (%) per entry.
1. CN1CCC[C@@H]1CCO[C@](C)(c1ccccc1)c1ccc(Cl)cc1.O=C(O)/C=C/C(=O)O [CLEMASTINE FUMARATE]
2. COc1ncc(-c2ccc3nccc(-c4ccnnc4)c3c2)cc1NS(=O)(=O)c1ccc(F)cc1F

[91, 92]

###

Assign Population Mitotic Cells (%) to each entry below.
# Tested on: Fibroblast
# TEST_METHOD_NOTES: Multiplex assay against human fibroblast
# Format: toxicity, cell-based
# CONDITIONS_USED: 12 h, 1 µM, compound concentration 1 uM, replicate 1
Answers are plain numbers, in %.

molecule="c1cn2cc(-c3ccc4cn[nH]c4c3)nc(Nc3ccc(N4CCOCC4)cc3)c2n1 [ENTOSPLETINIB]" value_reported=39
molecule=CC(C)(O)CNc1ncc(-c2ccnc(Nc3ccnc(Cl)c3)n2)c(CC2CC2)n1 value_reported=40

Shifting focus to the molecule that follows.
Can you look up Population Mitotic Cells (%) on Fibroblast for CN1CCN(CCOc2cc(OC3CCOCC3)c3c(Nc4c(Cl)ccc5c4OCO5)ncnc3c2)CC1 [SARACATINIB] ?
40

Measured values drawn from ChEMBL document CHEMBL4689842 for this set.
